test system: M19-MEL; assay: NCI tumour cell line growth inhibition, 48 h
Calls of active or inactive are those of the source. Rule as the data show it: active = GI50 up to about 1.1 µM and inactive = higher.
Observed Property: GI50

{"Compound": "C[C@@H]1O[C@@H](O[C@H]2[C@H](Oc3cc(O)c4c(=O)cc(-c5ccc(O)cc5)oc4c3)O[C@H](CO)[C@@H](O)[C@@H]2O)[C@H](O)[C@H](O)[C@H]1O", "Target": "M19-MEL", "Result": "> 100 µM (inactive)"}
{"Compound": "CC(=O)c1cccc(NC(=O)C(=O)C(C2OC(=O)c3ccccc32)[N+](=O)[O-])c1 (stereo not drawn)", "Target": "M19-MEL", "Result": "> 100 µM (inactive)"}
{"Compound": "CCCCCCCCC(C)CCCCCCCCC(=O)OCC(COP(=O)([O-])OCC[N+](C)(C)C)OC(=O)CCCCCCCCC(C)CCCCCCCC (stereo not drawn)", "Target": "M19-MEL", "Result": "> 100 µM (inactive)"}
{"Compound": "CCN1CC2(CO)CCC(OC)C34C5CC6C(OC)CC(O)(C5C6OC)C(O)(C(OC)C23)C14 (stereo not drawn)", "Target": "M19-MEL", "Result": "> 375 µM (inactive)"}
{"Compound": "CC12CCCCC1(C)C2Sc1ccccc1 (stereo not drawn)", "Target": "M19-MEL", "Result": "35.9 µM (inactive)"}
{"Compound": "CCOC(=O)NC(=O)c1cn(CCN2CCN(C(=O)NCCCCCCNC(=O)N3CCN(CCn4cc(C(=O)NC(=O)OCC)c(=O)n(CCN(CC)CC)c4=O)CC3)CC2)c(=O)n(CCC(CC)CC)c1=O", "Target": "M19-MEL", "Result": "> 100 µM (inactive)"}
{"Compound": "CN(C)c1snc2c1c(=O)n(C)c(=O)n2C", "Target": "M19-MEL", "Result": "> 100 µM (inactive)"}
{"Compound": "COC(=O)C1(C(=O)OC)CC2c3c(c4ccccc4n3C)CC(C1=O)N2Cc1ccccc1 (stereo not drawn)", "Target": "M19-MEL", "Result": "> 100 µM (inactive)"}
